B1: E. coli FtsN cytoplasmic tail peptide, residues 1-32 (EcFtsN^1-32) [E. coli] / E. coli FtsA (EcFtsA), full length [E. coli] (parent complex)
chain 1: MAQRDYVRRSQPAPSRRKKSTSRKKQRNLPAV
chain 2: MIKATDRKLVVGLEIGTAKVAALVGEVLPDGMVNIIGVGSCPSRGMDKGGVNDLESVVKCVQRAIDQAELMADCQISSVYLALSGKHISCQNEIGMVPISEEEVTQEDVENVVHTAKSVRVRDEHRVLHVIPQEYAIDYQEGIKNPVGLSGVRMQAKVHLITCHNDMAKNIVKAVERCGLKVDQLIFAGLASSYSVLTEDERELGVCVVDIGGGTMDIAVYTGGALRHTKVIPYAGNVVTSDIAYAFGTPPSDAEAIKVRHGCALGSIVGKDESVEVPSVGGRPPRSLQRQTLAEVIEPRYTELLNLVNEEILQLQEKLRQQGVKHHLAAGIVLTGGAAQIEGLAACAQRVFHTQVRIGAPLNITGLTDYAQEPYYSTAVGLLHYGKESHLNGEAEVEKRVTASVGSWIKRLNSWLRKEF

- Variants of: B1
- test.name: SPR; FtsA immobilised on CM5 chip via amide coupling; peptide 1:2 dilution series from 20 μM; maximum response fixed during fitting (asterisk)
pKd: −log10 of the molar value.
experimental.readout: pKd

>  <mut>
chain 1 R23A, chain 1 K24S, chain 1 K25A

>  <pKd>
~4.09

$$$$

Ask: I'd like to know its pKd. The variant in question is chain 1 R16A, chain 1 R17A, chain 1 K18S, chain 1 K19A
Reply: ~3.78
